- TEST TARGET: T1, 4H4038-bN
- T1 chain: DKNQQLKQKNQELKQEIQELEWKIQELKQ
- ASSAY PROCEDURE: two-hybrid library CCNG1;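 further: natural log of median RNA to DNA barcode read ratio; higher means stronger binding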
Decision: interaction score beneath -1 gives yes (1); interaction score meeting or exceeding -1 gives no (0).

Identify whether the binder DKNQQLKQEIQELEQENQELEWEIQELEQ [4H3601-bN] records interaction score below -1.
yes (1)

Identify whether the binder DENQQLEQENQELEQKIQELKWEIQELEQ [4H1193-bN] records interaction score below -1.
no (0)

Identify whether the binder DENQQLEQEIQELEQKIQELKWKNQELKQ [4H1072-bN] records interaction score below -1.
no (0)

Identify whether the binder DKNQQLKQKIQELKQEIQELEWENQELEQ [4H3907-bN] records interaction score below -1.
yes (1)

Identify whether the binder DENQQLEQKIQELKQKIQELKWENQELEQ [4H1387-bN] records interaction score below -1.
no (0)

Identify whether the binder DKNQQLKQEIQELEQEIQELEWKNQELKQ [4H3592-bN] records interaction score below -1.
no (0)

Identify whether the binder DENQQLEQKIQELKQKNQELKWKIQELKQ [4H1406-bN] records interaction score below -1.
yes (1)

Identify whether the binder DKNQQLKQKNQELKQEIQELEWKIQELKQ [4H4038-bN] records interaction score below -1.
no (0)
